- measured on: human CYP11B2 (Homo sapiens (Human))
- Sequence (P19099 25-503): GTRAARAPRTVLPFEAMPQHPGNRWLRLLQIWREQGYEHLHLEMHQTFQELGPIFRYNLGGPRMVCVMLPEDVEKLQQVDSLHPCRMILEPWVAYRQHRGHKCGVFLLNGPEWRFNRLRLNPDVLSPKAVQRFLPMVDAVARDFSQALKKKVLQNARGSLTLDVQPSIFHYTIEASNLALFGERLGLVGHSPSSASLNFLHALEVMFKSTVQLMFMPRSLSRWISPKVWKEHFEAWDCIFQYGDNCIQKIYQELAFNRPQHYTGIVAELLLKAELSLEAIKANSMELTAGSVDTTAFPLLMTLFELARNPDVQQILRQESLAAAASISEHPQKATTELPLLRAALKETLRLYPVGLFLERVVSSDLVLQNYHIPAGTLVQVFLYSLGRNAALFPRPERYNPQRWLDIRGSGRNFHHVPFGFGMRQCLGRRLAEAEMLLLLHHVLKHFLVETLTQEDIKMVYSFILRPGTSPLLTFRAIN
- test details: V79-Human-CYP11B2 cell assay
- Format: cell-based
- measurement context: V79 cells expressing human CYP11B2; 125 nM 11-deoxycorticosterone; aldosterone by HTRF
measured metric: IC50 (nM)
Supply the numeric figure in nM, leaving out any unit text.

Below, each entry is followed by its recorded IC50 result.
# compound, reading unit, IC50
data = [
    ("CC(=O)N1CCc2cc(-c3cncc4ccccc34)cc(Cl)c21 [Example 11]", "nM", 0.7),
    ("CCc1c(F)cncc1-c1cc2c(cc1Cl)N(C(C)=O)CC2 [Example 46]", "nM", 620),
    ("CC(=O)N1CCc2cc(-c3cnccc3C(F)(F)F)cc(Cl)c21 [Example 7]", "nM", 5),
]

Now examine the next entry.
Asked: Tell me its IC50 on human CYP11B2 (Homo sapiens (Human)): CC(=O)N1CCc2cc(-c3cncc([C@](C)(O)C(F)(F)F)c3)cc(F)c21 [Example 13]
Given back: 2.1

* * *

- measured on: human CYP11B1 (Homo sapiens (Human), UniProt P15538)
- Sequence (P15538 25-503): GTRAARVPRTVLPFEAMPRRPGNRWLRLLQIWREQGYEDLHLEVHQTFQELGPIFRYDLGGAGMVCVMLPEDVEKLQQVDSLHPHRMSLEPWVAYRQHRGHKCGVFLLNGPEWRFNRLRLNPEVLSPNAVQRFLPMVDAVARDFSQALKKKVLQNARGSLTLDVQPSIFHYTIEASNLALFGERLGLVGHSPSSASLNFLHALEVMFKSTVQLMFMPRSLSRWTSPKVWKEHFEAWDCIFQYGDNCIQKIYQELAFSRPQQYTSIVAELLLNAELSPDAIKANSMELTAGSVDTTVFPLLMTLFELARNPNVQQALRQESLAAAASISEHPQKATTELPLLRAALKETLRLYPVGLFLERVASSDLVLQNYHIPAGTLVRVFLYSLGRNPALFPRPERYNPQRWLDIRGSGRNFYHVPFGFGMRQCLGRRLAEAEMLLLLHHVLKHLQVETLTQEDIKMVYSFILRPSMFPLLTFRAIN
- test details: V79-Human-CYP11B1 cell assay
- Assay type: cell-based
- measurement context: V79 cells expressing human CYP11B1; 250 nM 11-deoxycortisol; cortisol by HTRF
measured metric: pIC50
# log scale: pIC50 equals minus log10 of the concentration in mol/L

# compound, measured metric, endpoint value
data = [
    ("CC(=O)N1CCc2cc(-c3cncc(F)c3)c(Cl)cc21 [Example 45]", "pIC50", 6.12),
    ("CCc1c(F)cncc1-c1cc2c(cc1Cl)N(C(C)=O)CC2 [Example 46]", "pIC50", 6.11),
    ("CC(=O)N1CCc2cc(-c3cncc(C#N)c3C)cc(Cl)c21 [Example 10]", "pIC50", 5.80),
    ("CC(=O)N1CCc2cc(-c3cncc(F)c3)cc(Cl)c21 [Example 2]", "pIC50", 5.10),
    ("CC(=O)N1CCc2cc(-c3cncc([C@@](C)(O)C(F)(F)F)c3)cc(Cl)c21 [Example 5]", "pIC50", 7.28),
]

Asked: Specify reported pIC50 for the compound shown: CC(=O)N1CCc2cc(-c3cnccc3C(F)(F)F)cc(Cl)c21 [Example 7]
Given back: 6.21

Asked: Quote pIC50 reported for CC(=O)N1CCc2cc(-c3cccnc3)c(F)cc21 [Example 47] please.
Given back: 6.42

Asked: Give a short answer stating reported pIC50 for CC(=O)N1CCc2cc(-c3cncc(F)c3)cc(F)c21 [Example 18] .
Given back: 5.96

Asked: State, in one line, measured pIC50 of CC(=O)N1CCc2cc(-c3cncc([C@](C)(O)C(F)(F)F)c3)cc(F)c21 [Example 13]
Given back: 7.64

Asked: Name the recorded pIC50 of the compound listed here: CCc1c(F)cncc1-c1cc2c(cc1F)N(C(C)=O)CC2 [Example 49]
Given back: 5.40

Asked: Provide only the value of recorded pIC50 for CC(=O)N1CCc2cc(-c3cncc4ccccc34)cc(Cl)c21 [Example 11]
Given back: 7.22

Asked: Quick one: give measured pIC50 for CC(=O)N1CCc2cc(-c3cncc(F)c3C)cc(F)c21 [Example 19]
Given back: 7.00

Asked: Specify measured pIC50 for CC(=O)N1CCc2cc(-c3cncc([C@@](C)(O)C(F)(F)F)c3)cc(F)c21 [Example 14] .
Given back: 7.89

Asked: # return recorded pIC50 for input COc1cncc(-c2cc(Cl)c3c(c2)CCN3C(C)=O)c1 [Example 3]
Given back: 6.89

Asked: Item CC(=O)N1CCc2cc(-c3cncc([C@](C)(O)C(F)(F)F)c3)cc(Cl)c21 [Example 4] : provide pIC50
Given back: 7.59

Asked: Supply pIC50 value. Item: CC(=O)N1CCc2cc(-c3cccnc3)cc(F)c21 [Example 12]
Given back: 6.05

Asked: Given CC(=O)N1CCc2cc(-c3cccnc3)c(Cl)cc21 [Example 44] , respond with its pIC50.
Given back: 6.33

Asked: Using the record for CC(=O)N1CCc2cc(-c3cncc(C#N)c3C)cc(F)c21 [Example 17] , state its measured pIC50.
Given back: 6.27
